The binders listed here are annotated with their pKd.
target: T1, AAV5 (adeno-associated virus 5, Assembled 60-mer capsid of VP1/VP2/VP3 (nested products of one cap gene), amine-coupled to a CM5 chip; the letters give one VP1 subunit only.); experiment: SPR, AAV amine-coupled to CM5 chip
T1 construct: also called adeno-associated virus serotype 5
Value format note: pKd is -log10 of concentration (mol/L); just state the number.

A4-C9 (bispecific antibody) VQLQESGGGLVQPGGSLRLSCAASGSNFSINTMGWYRQAPGKQRELVATVTRGGDTNYADSVKGRFTISRDNAKNTVYLQMNSLRPEDTAVYYCHVDEIRESSWTTSNLWGQGTQVTVSSGGGGSGGGGSGGGGSVQLQESGGGLVQPGGSLRLSCAASGSNFSINTMGWYRQAPGKQRELVAALTRGGSTNYADSVKGRFTISRDNAKNTVYLQMNSLRPEDTAVYYCHVDEVRESSWTTSNLWGQGTQVTVSSGGGGSGGGGSGGGGSVQLQESGGGLVQPGGSLRLSCAASGSNFRINTMGWYRQAPGKQRELVAPVTRGGSTNYADSVKGRFTISRDNAKNTVYLQMNSLRPEDTAVYYCHVDEVRESSWTTSNLWGQGTQVTVSS :: 9.11

Query A4-C1 (VHH) VQLQESGGGLVQPGGSLRLSCAASGSGFSINTMGWYRQAPGKQRELVATVTRDGSTNYADFVKGRFTISRDNAKNTVYLQMNSLRPEDTAVYYCHLDEVRESSWTTSNLWGQGTQVTVSSGGGGSGGGGSGGGGSVQLQESGGGLVQPGGSLRLSCAASGSGFSINTMGWYRQAPGKQRELVATVTRDGSTNYADFVKGRFTISRDNAKNTVYLQMNSLRPEDTAVYYCHLDEVRESSWTTSNLWGQGTQVTVSSGGGGSGGGGSGGGGSVQLQESGGGLVQPGGSLRLSCAASGSGFSINTMGWYRQAPGKQRELVATVTRDGSTNYADFVKGRFTISRDNAKNTVYLQMNSLRPEDTAVYYCHLDEVRESSWTTSNLWGQGTQVTVSS yields pKd of 7.88
